This listing pairs compounds with measured IC90.
- assayed target: plasma kallikrein (Homo sapiens, UniProt P03952)
- Construct: from tissue
- Sequence (P03952 391-638 limits assumed): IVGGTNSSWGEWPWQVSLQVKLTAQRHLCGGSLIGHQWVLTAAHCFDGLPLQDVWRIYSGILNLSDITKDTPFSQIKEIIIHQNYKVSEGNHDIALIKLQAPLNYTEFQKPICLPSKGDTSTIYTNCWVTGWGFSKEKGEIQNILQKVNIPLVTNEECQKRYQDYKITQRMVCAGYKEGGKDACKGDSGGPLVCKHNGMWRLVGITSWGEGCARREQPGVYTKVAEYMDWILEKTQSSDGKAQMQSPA
- Sequence (P03952 20-390 partner limits assumed): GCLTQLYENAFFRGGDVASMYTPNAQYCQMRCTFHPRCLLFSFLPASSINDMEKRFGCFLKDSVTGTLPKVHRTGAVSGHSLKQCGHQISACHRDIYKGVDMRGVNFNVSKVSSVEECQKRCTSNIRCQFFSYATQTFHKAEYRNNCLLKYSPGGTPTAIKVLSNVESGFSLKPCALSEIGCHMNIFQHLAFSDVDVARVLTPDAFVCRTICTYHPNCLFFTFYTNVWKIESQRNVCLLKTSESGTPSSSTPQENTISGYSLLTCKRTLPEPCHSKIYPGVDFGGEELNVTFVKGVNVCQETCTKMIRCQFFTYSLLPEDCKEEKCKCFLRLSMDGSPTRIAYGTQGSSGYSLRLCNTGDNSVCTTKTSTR
- assay summary: Neat human plasma assay, FXIIa contact pathway-activated, PFR-AMC substrate
- Format: biochemical
- test conditions: citrated human plasma 78% final, 10 nM human FXIIa, 100 μM PFR-AMC; read-out: Human Plasma Assay: IC90

{"columns": ["compound", "assayed target", "IC90"],
 "data": [
  ["O=C(Nc1cc(NCc2cn3cc(C4CC4)ccc3n2)ccn1)[C@H]1C[C@@H]1c1cc(Cl)ccc1-n1cnnn1 (racemic)", "plasma kallikrein (Homo sapiens, UniProt P03952)", "10 to 48 µM"],
  ["CS(=O)(=O)Nc1cc(C2CC2)cn2cc(CNc3ccnc(NC(=O)[C@H]4C[C@@H]4c4cccc(Cl)c4)c3)nc12", "plasma kallikrein (Homo sapiens, UniProt P03952)", "10 to 48 µM"],
  ["Cc1ccnc([C@H]2C[C@@H]2C(=O)Nc2nc(C3CC3)nc(N(C)Cc3cn4cc(C5CC5)cc(N5CC(=O)NC5=O)c4n3)n2)n1 (racemic)", "plasma kallikrein (Homo sapiens, UniProt P03952)", "0.4 to 1.5 µM"],
  ["O=C(Nc1cc(NCc2cn3cc(C4CC4)cc(C4(F)COC4)c3n2)ccn1)[C@H]1C[C@@H]1c1cccc(Cl)c1 (racemic)", "plasma kallikrein (Homo sapiens, UniProt P03952)", "10 to 48 µM"],
  ["CN1CC(F)(c2cc(C3CC3)cn3cc(CNc4cc(NC(=O)[C@H]5C[C@@H]5c5cccc(Cl)c5)ncn4)nc23)C1", "plasma kallikrein (Homo sapiens, UniProt P03952)", "0.4 to 1.5 µM"],
  ["CNC1CCN(c2cc(C3CC3)cn3cc(CNc4cc(NC(=O)[C@H]5C[C@@H]5c5cccc(Cl)c5)ncn4)nc23)C1 (stereo partly drawn)", "plasma kallikrein (Homo sapiens, UniProt P03952)", "0.4 to 1.5 µM"]
]}

###

- assayed target: plasma kallikrein (Homo sapiens, UniProt P03952)
- Construct: from tissue
- assay summary: Neat human plasma assay, FXIIa contact pathway-activated, PFR-AMC substrate
- Assay type: biochemical
- test conditions: citrated human plasma 78% final, 10 nM human FXIIa, 100 μM PFR-AMC; read-out: Human Plasma Assay: IC90
This listing pairs compounds with measured IC90.
measurement name: IC90

{"columns": ["compound", "measurement name", "observed measurement"],
 "data": [
  ["Cc1ccnc([C@H]2C[C@@H]2C(=O)Nc2cc(OCc3cn4cc(C5CC5)cc(N5CC(=O)N(CCOCc6ccccc6)C5=O)c4n3)ncn2)n1 (racemic)", "IC90", "10 to 48 µM"],
  ["O=C(Nc1cc(NCc2cn3cc(C4CC4)cc(N4CCOCC4)c3n2)ccn1)[C@H]1C[C@@H]1c1cccc(Cl)c1", "IC90", "1.5 to 10 µM"],
  ["O=C(Nc1cc(NCc2cn3cc(C4CC4)ccc3n2)ccn1)[C@@]1(F)C[C@@H]1c1cccc(Cl)c1 (racemic)", "IC90", "10 to 48 µM"],
  ["Cc1ccnc([C@H]2C[C@@H]2C(=O)Nc2cc(NCc3cn4cc(C5CC5)cc(N5CCCC5=O)c4n3)ncn2)n1 (racemic) [Example 389]", "IC90", "0.4 to 1.5 µM"],
  ["CN1CCN(c2cc(C3CC3)cn3cc(CNc4cc(NC(=O)[C@H]5C[C@@H]5c5cccc(Cl)c5)ccn4)nc23)CC1", "IC90", "0.4 to 1.5 µM"],
  ["O=C(Nc1cc(N2C[C@@H](O)C[C@@H]2c2cn3cc(C4CC4)ccc3n2)ccn1)[C@H]1C[C@@H]1c1cccc(Cl)c1", "IC90", "1.5 to 10 µM"]
]}

###

- assayed target: human activated kallikrein enzyme (Homo sapiens)
- Sequence (P03952 391-638 limits assumed): as the sequence (P03952 391-638 limits assumed) above
- Sequence (P03952 20-390 partner limits assumed): as the sequence (P03952 20-390 partner limits assumed) above
- assay summary: Plasma kallikrein inhibition, fluorogenic PFR-AMC substrate, 500 pM activated kallikrein format
- Assay type: biochemical
- test conditions: 500 pM activated kallikrein, 300 uM PFR-AMC, 30 min preincubation, 10 min reaction; read-out: Primary Dose Response Assay: Average EC50
- Procedure: Compounds were evaluated for inhibition of the human activated kallikrein enzyme in two formats of an assay employing a fluorogenic peptide substrate. […] After initiation with substrate, reactions were incubated for 10 min at room temperature and fluorescence emission at 460 nm from 380 nm excitation measured with a microplate reader. […]
pEC50: −log10 of the molar value.

{"columns": ["compound", "assayed target", "pEC50"],
 "data": [
  ["O=C(Nc1cc(N2C[C@@H](O)C[C@@H]2c2cn3cc(C4CC4)cc(N4CCOC4=O)c3n2)ncn1)[C@H]1C[C@@H]1c1cccc(Cl)c1 [Example 479]", "human activated kallikrein enzyme (Homo sapiens)", "8.00 to 9.00"],
  ["O=C(Nc1cc(N(CCO)Cc2cn3cc(C4CC4)ccc3n2)ccn1)[C@H]1C[C@@H]1c1cccc(Cl)c1 [Example 604]", "human activated kallikrein enzyme (Homo sapiens)", "8.00 to 9.00"],
  ["Cc1ccnc([C@H]2C[C@@H]2C(=O)Nc2cc(N[C@H](C)c3cn4cc(C(F)F)cc(N5CC(=O)N(C)C5=O)c4n3)ncn2)n1 [Example 417]", "human activated kallikrein enzyme (Homo sapiens)", "> 9.00"],
  ["Cc1ccnc([C@H]2C[C@@H]2C(=O)Nc2cc(OCc3cn4cc(C5CC5)cc(S(C)(=O)=O)c4n3)cnn2)n1 [Example 561]", "human activated kallikrein enzyme (Homo sapiens)", "> 9.00"],
  ["Cc1ccnc([C@H]2C[C@@H]2C(=O)Nc2cc(NCc3cn4cc(C5CC5)ccc4n3)ccc2S(C)(=O)=O)n1 (racemic) [Example 619]", "human activated kallikrein enzyme (Homo sapiens)", "5.22 to 6.00"],
  ["Cc1cc(NCc2cn3cc(C4CC4)cc(N4CC(=O)N(C)C4=O)c3n2)nc(NC(=O)[C@H]2C[C@@H]2c2nccc(C)n2)n1 (racemic) [Example 519]", "human activated kallikrein enzyme (Homo sapiens)", "> 9.00"],
  ["CN1CN(c2cc(C3CC3)cn3cc(CNc4cc(NC(=O)[C@H]5C[C@@H]5c5cccc(Cl)c5)ncn4)nc23)CC1=O [Example I-9]", "human activated kallikrein enzyme (Homo sapiens)", "8.00 to 9.00"],
  ["COc1ncccc1-c1cc(C2CC2)cn2cc(CNc3cc(NC(=O)[C@H]4C[C@@H]4c4cccc(Cl)c4)ncn3)nc12 [Example I-150]", "human activated kallikrein enzyme (Homo sapiens)", "7.00 to 8.00"],
  ["CN1CC(=O)N(c2cc(C3CC3)cn3cc(CNc4cc(NC(=O)[C@H]5C[C@@H]5c5cccc(Cl)c5)ncn4)nc23)C1=O [Example I-171]", "human activated kallikrein enzyme (Homo sapiens)", "8.00 to 9.00"],
  ["NCc1cc(C2CC2)cn2cc(CNc3ccnc(NC(=O)[C@H]4C[C@@H]4c4cccc(Cl)c4)c3)nc12 [Example 293]", "human activated kallikrein enzyme (Homo sapiens)", "> 9.00"],
  ["N#Cc1cc(Cl)sc1[C@H]1C[C@@H]1C(=O)Nc1cc(NCc2cn3cc(C4CC4)ccc3n2)ccn1 (racemic) [Example I-212]", "human activated kallikrein enzyme (Homo sapiens)", "8.00 to 9.00"],
  ["O=C(Nc1nccc2nn(Cc3cn4cc(C5CC5)ccc4n3)cc12)[C@H]1C[C@@H]1c1cc(Cl)ccc1[N+](=O)[O-] (racemic) [Example 578]", "human activated kallikrein enzyme (Homo sapiens)", "8.00 to 9.00"],
  ["O=C(Nc1cc(NCc2cn3cc(C4CC4)cc(N4CCN(CC5CC5)CC4)c3n2)ccn1)[C@H]1C[C@@H]1c1cccc(Cl)c1 [Example 601]", "human activated kallikrein enzyme (Homo sapiens)", "> 9.00"],
  ["COc1cc([C@H]2C[C@@H]2C(=O)Nc2cc(NCc3cn4cc(C5CC5)ccc4n3)ncn2)cc(N)n1 (racemic) [Example 277]", "human activated kallikrein enzyme (Homo sapiens)", "6.00 to 7.00"],
  ["NCc1cc(C2CC2)cn2cc(COc3ccnc(NC(=O)[C@H]4C[C@@H]4c4cccc(Cl)c4)c3)nc12 (racemic) [Example 572]", "human activated kallikrein enzyme (Homo sapiens)", "8.00 to 9.00"],
  ["O=C(Nc1cc(NCc2cn3cc(C4CC4)cc(N4CCN(C5COC5)CC4)c3n2)ncn1)[C@H]1C[C@@H]1c1cccc(Cl)c1 [Example I-202]", "human activated kallikrein enzyme (Homo sapiens)", "8.00 to 9.00"],
  ["Cc1ccnc([C@H]2C[C@@H]2C(=O)Nc2cc(NCc3cn4cc(C5CC5)cc(-n5[nH]c(=O)n(C)c5=O)c4n3)ncn2)n1 (racemic) [Example 386]", "human activated kallikrein enzyme (Homo sapiens)", "8.00 to 9.00"],
  ["O=C(Nc1cc(NCc2cn3cc(C4CC4)cc(N4CCOCC4)c3n2)ccn1)[C@H]1C[C@@H]1c1cccc(Cl)c1 [Example 129]", "human activated kallikrein enzyme (Homo sapiens)", "> 9.00"],
  ["CC(=O)Nc1cc(C2CC2)cn2cc(CNc3cc(NC(=O)[C@H]4C[C@@H]4c4cccc(Cl)c4)ncn3)nc12 [Example 275]", "human activated kallikrein enzyme (Homo sapiens)", "8.00 to 9.00"],
  ["O=C(Nc1cc(NCc2cn3cc(C4CC4)ccc3n2)cnn1)[C@H]1C[C@@H]1c1cccc(Cl)c1 (racemic) [Example 101]", "human activated kallikrein enzyme (Homo sapiens)", "8.00 to 9.00"],
  ["Cc1ccnc([C@H]2C[C@@H]2C(=O)Nc2nccc(N3C[C@@H](O)C[C@@H]3c3cn4cc(C5CC5)cc(N5CC(=O)N(C)C5=O)c4n3)n2)n1 (relative stereo) [Example 541]", "human activated kallikrein enzyme (Homo sapiens)", "> 9.00"],
  ["CC(=O)c1cc(C2CC2)cn2cc(CNc3cc(NC(=O)[C@H]4C[C@@H]4c4cccc(Cl)c4)ncn3)nc12 [Example I-207]", "human activated kallikrein enzyme (Homo sapiens)", "8.00 to 9.00"],
  ["CN1CCN(c2cc(C3CC3)cn3cc(CNc4cncc(NC(=O)[C@H]5C[C@@H]5c5cccc(Cl)c5)n4)nc23)CC1 [Example I-255]", "human activated kallikrein enzyme (Homo sapiens)", "8.00 to 9.00"],
  ["Cc1ccnc([C@H]2C[C@@H]2C(=O)Nc2cc(NCc3cn4cc(C5CC5)cc(N5CC(=O)N(C)C5=O)c4n3)nc(C(F)F)n2)n1 (racemic) [Example 411]", "human activated kallikrein enzyme (Homo sapiens)", "> 9.00"],
  ["Cc1ccnc([C@H]2C[C@@H]2C(=O)Nc2cc(NCc3cn4cc(C5CC5)cc(N5CC(=O)N(C)C5=O)c4n3)nc(C)n2)n1 [Example 365]", "human activated kallikrein enzyme (Homo sapiens)", "> 9.00"]
]}

The origin of these recorded values is patent US20240228488A1.
